target: Rhodesain (Trypanosoma brucei rhodesiense); test: Inhibition of Trypanosoma brucei rhodesiense rhodesain using Cbz-Phe-Arg-AMC as substrate measured for 10 mins by spectrofluorometric analysis
Sequence (Q95PM0 whole entry): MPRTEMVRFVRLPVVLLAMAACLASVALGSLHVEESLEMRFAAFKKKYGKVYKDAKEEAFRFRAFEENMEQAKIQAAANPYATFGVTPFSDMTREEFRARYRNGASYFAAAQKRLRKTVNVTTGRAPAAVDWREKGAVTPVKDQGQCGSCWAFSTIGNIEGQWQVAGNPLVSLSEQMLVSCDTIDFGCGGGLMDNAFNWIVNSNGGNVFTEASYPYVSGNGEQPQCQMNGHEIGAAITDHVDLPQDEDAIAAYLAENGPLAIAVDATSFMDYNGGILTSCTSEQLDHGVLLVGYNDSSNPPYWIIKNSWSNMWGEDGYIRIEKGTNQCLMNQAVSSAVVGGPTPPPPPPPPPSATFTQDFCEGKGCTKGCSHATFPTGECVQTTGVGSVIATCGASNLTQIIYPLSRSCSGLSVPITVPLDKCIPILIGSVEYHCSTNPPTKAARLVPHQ
Classify: yes (1) when IC50 is strictly less than 20 µM; no (0) when IC50 is not.

CC1CCc2nc3ccccc3c(NCCCCCCCCCNc3c4c(nc5ccccc35)CCC(C)C4)c2C1 (configuration not stated): no (0)
c1ccc2c(NCCCCCCCCNc3c4c(nc5ccccc35)CCCC4)c3c(nc2c1)CCCC3: yes (1)
CCOC1CCc2nc3cc(Cl)ccc3c(NCCCCCCCCCNc3c4c(nc5cc(Cl)ccc35)CCC(OCC)C4)c2C1 (configuration not stated): yes (1)
COc1ccc2nc3c(c(NCCCCCCCCCNc4c5c(nc6ccc(OC)cc46)CCCC5)c2c1)CCCC3: yes (1)
CC1CCc2c(nc3ccc([N+](=O)[O-])cc3c2NCCCCCCNc2c3c(nc4ccc([N+](=O)[O-])cc24)CC(C)CC3)C1 (configuration not stated): yes (1)

Exercise: Does this molecule meet the criterion IC50 < 20 µM? Clc1ccc2c(NCCCCCCNc3c4c(nc5cc(Cl)ccc35)CCCC4)c3c(nc2c1)CCCC3
Key: yes (1)

Exercise: A record lists CC1(C)CCc2c(nc3cc(Cl)ccc3c2NCCCCCCNc2c3c(nc4cc(Cl)ccc24)CC(C)(C)CC3)C1 . Is its IC50 below 20 µM?
Key: no (0)
